The origin of these recorded values is ChEMBL document CHEMBL3988442.

The entries below are paired with their reported Percent Effect.
Molecular target: Protein translocase subunit SecA (Escherichia coli (strain K12))
Experiment: Assay to Identify E. coli SecA ATPase Inhibitors
Assay type: functional
Parameters: scale not given: direction of the effect not stated beside the values
Conditions: 30 µM
Entries with a potency or affinity are not part of this list.
readoutLabel: Percent Effect

compound=O=C(NCCCn1ccnc1)N1CCN(c2cccs2)CC1 observedresult=-5.79%
compound=O=C(c1coc(COc2cccc(F)c2)n1)N1CC[C@H](O)[C@@H](O)C1 observedresult=-4.21%
compound="O=C(NCC1(N2CCOCC2)CCSC1)Nc1ccc(F)cc1 (stereo not given)" observedresult=0.856%
compound="CC(Cn1cccn1)NC(=O)N1CCN(Cc2cccs2)CC1 (stereo not given)" observedresult=-1.74%
compound=CC(C)CN1CCCn2nc(CNC(=O)c3cccnc3O)cc2C1 observedresult=-5.79%
compound=O=C1CCC2(CCN(Cc3nccs3)CC2)N1Cc1ccccc1 observedresult=-0.659%
compound="CC1CN(C)c2ccccc2CN1C(=O)CSc1ccncc1 (stereo not given)" observedresult=-1.53%
compound=N#Cc1ccc(C(=O)N2CC[C@H]3[C@@H]2CCC(=O)N3c2cccnc2)cc1 observedresult=-4.52%
compound=Cc1cccc(C(=O)N2C[C@@H](OCc3cccnc3)[C@H]3OCCC[C@@H]32)n1 observedresult=-3.43%
compound=CCOC(=O)N1CCN(C(=O)CCn2ccc3c(OC)cccc32)CC1 observedresult=-0.914%
compound="CC(C(=O)Nc1ncccn1)N1CCCN(c2nccs2)CC1 (stereo not given)" observedresult=-0.557%
compound=CN1CCN(C(=O)c2nc3c(o2)CN(C(=O)c2cccnc2)C3)CC1 observedresult=-2.08%
compound=CC(C)c1ncncc1C(=O)NCCN1CCCS1(=O)=O observedresult=-3.82%
compound=Fc1ccccc1CN1C[C@@H](OCc2ccncc2)[C@H]2OCCC[C@H]21 observedresult=-4.8%
compound=CN(C)C(=O)[C@@H]1C[C@@H]2CCN(Cc3nccs3)C[C@@H]2O1 observedresult=-4.02%
compound="COc1ccc(C2CCCN2C(=O)c2csc(NC(C)=O)n2)cc1 (stereo not given)" observedresult=-5.5%
compound="Cc1cc(C)c2nc(CN3CCCC(c4cc[nH]n4)C3)cc(O)c2c1 (stereo not given)" observedresult=-1.83%
compound="COC1COC2(CCN(Cc3ccccc3Cl)CC2)C1 (stereo not given)" observedresult=-5.82%
compound="CC1CN(CC(=O)NC2CCCC2)CCN1c1ccc2nncn2n1 (stereo not given)" observedresult=-1.74%
compound=CN(C)CC(=O)N1C[C@@H]2CC[C@H](Oc3ccccc3Cl)[C@@H]2C1 observedresult=-5.55%
compound="O=C(NCc1ccco1)C1CCCN1Cc1nc(-c2ccco2)no1 (stereo not given)" observedresult=-0.649%
compound=CC1(C)Cc2ccccc2-c2nc(NCCO)[nH]c(=O)c21 observedresult=-5.03%
compound="Cc1nccc(N2CCC(=O)N(Cc3ccc(F)cc3)C(C(C)C)C2)n1 (stereo not given)" observedresult=-2.94%
compound="CSCC(=O)N1CCCC(n2ccnc2C(C)C)C1 (stereo not given)" observedresult=-0.321%
compound="COCC(c1cccc(C(F)(F)F)c1)N(C)C(=O)c1cc(C)no1 (stereo not given)" observedresult=-0.889%
compound="CCC(OC)C(=O)N1CCc2nc(NC)nc(C(=O)N3CCCC3)c2C1 (stereo not given)" observedresult=-2.18%
compound=CCOc1ncccc1NC(=O)c1cc(C)c(C)s1 observedresult=-7.94%
compound=COc1cccc(S(=O)(=O)CCN2CCCCC2)c1 observedresult=-3.72%
compound=Cn1ccc(C(=O)N2CCN(CCc3ccccc3)CC2)cc1=O observedresult=-5.05%
compound=CN(C)C[C@H]1OC[C@@H]2CCN(S(=O)(=O)c3cccs3)C[C@@H]21 observedresult=-10.2%
compound="Cc1cnn(C2CCCN(C(=O)c3cn4cccnc4n3)C2)c1 (stereo not given)" observedresult=-4.17%
compound="CCc1nc(C2CCCN2Cc2nc3ccccc3o2)no1 (stereo not given)" observedresult=-0.183%
compound="CC(Cc1ccco1)NC(=O)Nc1ccc(S(C)(=O)=O)nc1 (stereo not given)" observedresult=-4.47%
compound="CC(=O)Nc1nc(CN2CCCC2Cn2cc(C)cn2)cs1 (stereo not given)" observedresult=0.188%
compound="COCC1CCN(C(=O)c2cccc(S(=O)(=O)NC3CCCC3)c2)C1 (stereo not given)" observedresult=1.68%

###

Molecular target: Proteasome subunit beta (Trypanosoma cruzi) (UniProt O96673)
Sequence (O96673 as listed by the source): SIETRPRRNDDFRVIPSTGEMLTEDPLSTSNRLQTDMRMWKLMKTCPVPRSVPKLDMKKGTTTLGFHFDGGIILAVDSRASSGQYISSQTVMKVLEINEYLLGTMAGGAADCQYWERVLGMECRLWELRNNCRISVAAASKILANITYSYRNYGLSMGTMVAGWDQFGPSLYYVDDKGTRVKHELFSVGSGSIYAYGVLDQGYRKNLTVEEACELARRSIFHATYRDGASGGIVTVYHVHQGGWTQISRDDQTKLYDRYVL
Assay: Trypanosoma cruzi proteasome chymotrypsin-like activity (TcProtChymo) assay. Further: in the data most compounds retested in dose-response had high values.
Type: functional
Set-up: scale not given: direction of the effect not stated beside the values
Conditions: 9.37 µM
readoutLabel: Percent Effect (%)

compound=Cc1ccc(C(=O)N2C[C@@H]3OCCN(CCN4CCCC4)[C@@H]3C2)cn1 u=% observedresult=21
compound=CC(=O)N1CCCN(Cc2csc(-c3ncccn3)n2)CC1 u=% observedresult=20.4
compound=CCN(C(=O)c1ccc(-n2ncc(C#N)c2N)cc1)C1CCCC1 u=% observedresult=6.67
compound=CNCC(=O)N1CC(c2cc(Nc3ncccn3)nc(C)n2)C1 u=% observedresult=8.9
compound="Cc1cnn(CC2CCN(CC(O)COc3ccc(F)cc3)CC2)c1 (stereo not given)" u=% observedresult=4.21
compound=O=C(NCCn1ccnc1)N1CCN(c2nccs2)CC1 u=% observedresult=18.2
compound="CC(O)CN1CCN(C(=O)c2ccc(N(C)C)nn2)CC1 (stereo not given)" u=% observedresult=1.18
compound=O=C(c1ccccn1)N1CCN(c2ccc(-c3cccnc3)nn2)CC1 u=% observedresult=21.7
compound=Cn1cc(C(=O)N2CC[C@@H]3[C@@H]2CCN3Cc2cccc(F)c2)cn1 u=% observedresult=9.96
compound="CCN(CC1CCOC1)C(=O)Nc1ccc(OC)nc1 (stereo not given)" u=% observedresult=18.2

###

Biological target: Chromo domain-containing protein 1 (Saccharomyces cerevisiae (strain ATCC 204508 / S288c) (Baker's yeast))
Test: ScCHD-1 Enzyme Inhibition Assay; further: in the data most compounds retested in dose-response had high values
Format: functional
Parameters: scale not given: direction of the effect not stated beside the values
Details: 30 µM
The entries below are paired with their reported Percent Effect.
readoutLabel: Percent Effect (%)

molecule=Cc1nccc([C@H]2C[C@@H]3CCN(S(=O)(=O)N(C)C)C[C@H]3O2)n1 observedresult=-6.72
molecule="CCC(NC(=O)c1ccco1)c1ccccc1OCC(=O)N1CCCC1 (centres undefined)" observedresult=-5.94
molecule="Cc1cc(NC(=O)CN2CCCC2c2noc(C(C)C)n2)n(C)n1 (centres undefined)" observedresult=0.723
molecule=O=C(O)c1ccc(S(=O)(=O)Nc2ccc(Cl)c(F)c2)c(F)c1 observedresult=-4.26
molecule="O=C(Nc1cccc(N2CCCC2)c1)C1CCCN1c1nccs1 (centres undefined)" observedresult=-2.52
molecule=COCCO[C@H]1CCN(C(=O)c2ccc[nH]2)[C@H]1Cc1ccncc1 observedresult=0.525
molecule=CCS(=O)(=O)N(C)C1CCN(C(=O)c2cccc(Cl)c2)CC1 observedresult=-6.5
molecule=Cc1cccc(OCCC(=O)N2CCCN(C(N)=O)CC2)c1C observedresult=-6.9
molecule="c1ccc(-c2cnc(CNCC3CCCN3c3cccnn3)o2)cc1 (centres undefined)" observedresult=-20.7

###

The entries below are paired with their reported Percent Effect.
Target: Chromo domain-containing protein 1 (Saccharomyces cerevisiae (strain ATCC 204508 / S288c) (Baker's yeast))
Experiment: ScCHD-1 Enzyme Inhibition Assay; further: in the data most compounds retested in dose-response had high values
Assay type: functional
Set-up: scale not given: direction of the effect not stated beside the values
Settings: 30 µM
readoutLabel: Percent Effect (%)

molecule="CN(Cc1ccc(Cl)s1)C1CCCN(c2cccnn2)C1 (stereo unspecified)" u=% observedresult=-1.67
molecule="CCC(=O)N1CCC(Cc2ccccc2-c2ccccc2)(C(N)=O)C1 (stereo unspecified)" u=% observedresult=-4.71
molecule=CCn1cnnc1CNC(=O)N1CCN(c2nc(C)c(C)s2)CC1 u=% observedresult=-9.23
molecule=CC(C)c1ncncc1C(=O)NCCN1CCCS1(=O)=O u=% observedresult=1.18
molecule=CCOc1ncccc1NC(=O)N1CCN(c2cccc(C)c2C)CC1 u=% observedresult=1.36
molecule=CCn1cc(CN(C)C(=O)c2cccc(CCC(C)(C)O)c2)cn1 u=% observedresult=-6.76
molecule="Cc1cc(C)n(CC2CN(CC(=O)Nc3nncs3)CCO2)n1 (stereo unspecified)" u=% observedresult=-2.27
molecule=N#Cc1ccccc1N1CCCN(C(=O)CCc2nccs2)CC1 u=% observedresult=-6.41
molecule=CS(=O)(=O)NCc1cnc2n1CCN(Cc1ccsc1)CC2 u=% observedresult=0.00549
molecule="CCOC(=O)NC(CNC(=O)c1ccccn1)CC(C)C (stereo unspecified)" u=% observedresult=-5.52
molecule=Cc1nc(N2CCN(C(=O)C3CC3)CC2)c2c(n1)c(C)nn2C u=% observedresult=-11.8
molecule="O=C(Cc1ccccc1)N1CCC2(CC(=O)N(c3ccsc3)C2)C1 (stereo unspecified)" u=% observedresult=-3.9
molecule="CC1c2ncc(CNC(=O)C3CC3)n2CCN1Cc1cnn(C)c1 (stereo unspecified)" u=% observedresult=-7.95
molecule="COCCc1noc(CN2CCCC(Cn3nc(C)nc3C)C2)n1 (stereo unspecified)" u=% observedresult=-11.8
molecule=NC(=O)Cn1cc(NC(=O)N2CCCC2)cn1 u=% observedresult=-4.77
molecule=COCCc1noc(CN(C)C(=O)c2cccc(N3CCCC3=O)c2)n1 u=% observedresult=-1.74
molecule="COc1ccc(CNCC2CCN(CC(C)O)CC2)c2ccccc12 (stereo unspecified)" u=% observedresult=-4.71
molecule="O=C(NCc1cc(O)ncn1)C1CCOc2ccccc2C1 (stereo unspecified)" u=% observedresult=-2.81
molecule=Cc1cnc(C)c(N2CCN(Cc3ccc(-c4cc[nH]n4)o3)CC2)n1 u=% observedresult=-4.34
molecule="COc1ccc(CCC(=O)N2CCCC2Cn2cc(C)cn2)cc1F (stereo unspecified)" u=% observedresult=-12.9
molecule="c1cnn(CC2CCCN2Cc2nc(-c3ccoc3)no2)c1 (stereo unspecified)" u=% observedresult=-12.5
molecule=COCCNC(=O)[C@H]1CN(c2nnc(C)s2)C[C@H]2OCC[C@@H]12 u=% observedresult=2.36
molecule=Cn1cc(Br)c(=O)c(NS(=O)(=O)c2cc(F)ccc2Cl)c1 u=% observedresult=-0.642
molecule="COCCCC1CCCN(C(=O)CCc2cc(O)no2)C1 (stereo unspecified)" u=% observedresult=-2.19
molecule=O=C1O[C@@H]2CN(Cc3ccccc3)C[C@@H]2N1CCCN1CCOCC1 u=% observedresult=-5.71
molecule="CC(C)C(C)NC(=O)Nc1ccc(CS(C)(=O)=O)cc1 (stereo unspecified)" u=% observedresult=-1.16
molecule="CCn1ncc2c1CCCC2NCC1=Cc2ccccc2OC1 (stereo unspecified)" u=% observedresult=-2
molecule="Cc1cnn(CC(C)NCc2ccc(-n3cccn3)cc2)c1 (stereo unspecified)" u=% observedresult=-18.2
molecule="CC(Nc1cccc(CN2CCOC2=O)c1)C(=O)NC(N)=O (stereo unspecified)" u=% observedresult=17.9
molecule=CCN1CCN(C2CCN(Cc3c(C)noc3C)CC2)C1=O u=% observedresult=-7.48
molecule=COc1ccc(NC(=O)Cn2nc(C)ccc2=O)cc1OC u=% observedresult=0.459
